measuredOn: canine IL-31 (Canine_IL31) (canine)
Sequence (chain, as listed by the source limits assumed, form in doubt): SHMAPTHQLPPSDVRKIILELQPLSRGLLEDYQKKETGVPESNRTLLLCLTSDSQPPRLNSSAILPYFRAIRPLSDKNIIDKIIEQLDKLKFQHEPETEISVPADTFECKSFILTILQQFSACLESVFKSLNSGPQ
protocol: SPR (Biacore), immobilised IL-31, 1:1 fit
readoutName: koff (s⁻¹)
Answer format: numeric, s⁻¹ implied, no suffix.

• Feline 11E12 1.1 (antibody, V domains shown) VH: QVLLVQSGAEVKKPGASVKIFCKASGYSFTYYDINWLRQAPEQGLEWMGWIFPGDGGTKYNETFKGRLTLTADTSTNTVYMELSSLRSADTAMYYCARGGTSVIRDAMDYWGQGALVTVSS VL: EIQMTQSPSSLSASPGDRVTITCRASESVDNYGISFMHWYQQKPGKVPKLLIYRASNLESGVPSRFSGSGSGTDFTLTISSLEPEDAATYYCQQSNKDPLTFGQGT = 0.000141

Any idea what koff was measured for Feline 15H05 1.1 (antibody, V domains shown) VH: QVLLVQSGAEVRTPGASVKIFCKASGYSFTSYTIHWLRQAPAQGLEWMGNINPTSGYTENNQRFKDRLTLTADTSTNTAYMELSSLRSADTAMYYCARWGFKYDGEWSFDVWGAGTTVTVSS VL: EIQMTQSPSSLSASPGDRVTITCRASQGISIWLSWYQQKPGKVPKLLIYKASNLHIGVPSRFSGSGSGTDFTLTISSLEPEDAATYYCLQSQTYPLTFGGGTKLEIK ?
1.36e-07
